All values here come from patent US12692249B2.

Test system: MV4:11 human cancer cell lines
METHOD DESCRIPTION: Cellular viability / anti-proliferative assay, CellTiter-Glo, 5 day protocol
Type: cell-based
CONDITION NOTES: Homo sapiens, MV4-11, 120 h, MV4:11 cells; 5 day incubation; CellTiter-Glo; mean of at least two replicates; read-out: GI50 on cellular proliferation of MV4:11 human cancer cell lines
VALUE TYPE: GI50 (µM)
Number only, in µM; omit the unit.

| COMPOUND STRING | VALUE UNITS | GI50 |
| --- | --- | --- |
| CCc1cc(C(=O)NCCNC(C)=O)c2nccc(N3CCc4c(cc(Cn5ccnc5)cc4-c4cn(C)nc4C(F)(F)F)C3=O)c2c1 | µM | 0.035 |

Now for another entry.
# compound CCc1cc(COC)c2nc(C)cc(N3CCc4c(cc(Cn5ccnc5)cc4-c4cn(C)nc4C(F)(F)F)C3=O)c2c1 ; its GI50 = 0.028
